The origin of these recorded values is the RepoRT retention time repository (doi:10.1021/acs.analchem.1c00972).

Recorded measurements of LC retention time, one per entry
# PROCEDURE SUMMARY: RP, Waters ACQUITY UPLC BEH C18, 100 × 1 mm, 1.7 µm, 50 °C, 0.3 mL/min, estimated dead time 0.17 min; A: water + 10 mM ammonium bicarbonate; B: 10% water + 90% methanol + 10 mM ammonium bicarbonate; gradient (min/%B) 0/0 15/100 21/100 22/0 30/0
# TEST CONDITIONS: stereoisomer not certain
Quick note: give the figure in min, leave out the unit.

Would you please look over these solved cases?
CC(=O)SC1CC2=CC(=O)CCC2(C)C2CCC3(C)C(CCC34CCC(=O)O4)C12 (stereo not drawn)	14.2
Cc1ccc(OP(=O)(Oc2ccc(C)cc2)Oc2ccc(C)cc2)cc1 [Tricresylphosphate]	17.7

Task: // returns reported LC retention time for input Nc1nc(=O)n(C2CSC(CO)O2)cc1F (stereo not drawn)
Output: 5.99

Task: Record request: LC retention time value, item CCN1CC2(COC)C(O)CC(OC)C34C5CC6(O)C(OC)C(O)C(OC(C)=O)(C5C6OC(=O)c5ccccc5)C(C(OC)C23)C14 (stereo not drawn)
Output: 15.7

Task: What value of LC retention time has been reported for the following compound? CCNS(=O)(=O)c1ccccc1C [N-Ethyl-o-toluenesulfonamide]
Output: 11.6

Task: What LC retention time value was documented for this compound, CCCCOC(=O)c1ccc(O)cc1 ?
Output: 14

Task: # query: LC retention time of entry CC12C=CC(=O)C=C1CCC1C3CC(O)C(O)(C(=O)CO)C3(C)CC(O)C12F (stereo not drawn)
Output: 10.1

Task: Which measured LC retention time value corresponds to CC12C=CC3=C4CCC(=O)C=C4CCC3C1CCC2O (stereo not drawn) ?
Output: 13.6

----------
# LC retention time per entry
# PROCEDURE SUMMARY: RP, Waters ACQUITY UPLC BEH C18, 100 × 1 mm, 1.7 µm, 50 °C, 0.3 mL/min, estimated dead time 0.17 min; A: water + 0.1% formic acid + 20 mM ammonium formate; B: methanol + 0.1% formic acid + 20 mM ammonium formate; gradient (min/%B) 0/0 15/100 21/100 22/0 30/0
# TEST CONDITIONS: stereoisomer not certain
I only need the number, in min, no unit after it.

These solved cases illustrate the format of a correct answer.
COc1cccc(CO)c1O [2-Hydroxy-3-methoxybenzyl alcohol]	9
COc1cc(C)c(C(=O)c2c(OC)ccc(Br)c2C)c(OC)c1OC	16
Cc1ccc(O)cc1	14.3

Task: Can you look up the measured LC retention time of Cc1cccc(Nc2ccncc2S(=O)(=O)NC(=O)NC(C)C)c1 [Torasemide] for me?
Output: 11.6

Task: Give its LC retention time value. Item: OCCc1cccc(O)c1 [2-(3-Hydroxyphenyl)ethanol]
Output: 2.8

Task: Need LC retention time, item O=C(O)c1cc(=O)c2ccccc2[nH]1
Output: 6.9

Task: Name the reported LC retention time value associated with the compound CC(C)Nc1nc(NC(C)C)[nH]c(=O)n1 [Propazine-2-hydroxy]
Output: 9.88

Task: Request the reported LC retention time associated with O=C(O)c1cccc(Oc2cccc(C(F)(F)F)c2)n1
Output: 14

Task: Report LC retention time for CC(C)(C)c1cc([N+](=O)[O-])cc([N+](=O)[O-])c1O please.
Output: 15.7

----------
# PROCEDURE SUMMARY: RP, Waters ACQUITY UPLC BEH C18, 100 × 1 mm, 1.7 µm, 50 °C, 0.3 mL/min, estimated dead time 0.17 min; A: water + 10 mM ammonium bicarbonate; B: 10% water + 90% methanol + 10 mM ammonium bicarbonate; gradient (min/%B) 0/0 15/100 21/100 22/0 30/0
# TEST CONDITIONS: stereoisomer not certain
A collection of compounds and their measured LC retention time
Please respond with the number in min and leave the unit unwritten.

For orientation, consider the following solved cases.
COP(=O)(OC)OC(C)=CC(=O)N(C)C	8.69
CCOP(=S)(OCC)Oc1ccc2c(C)c(Cl)c(=O)oc2c1	15.9
COC(=O)C1=COC(C)C2CN3CCc4c([nH]c5ccccc45)C3CC12 (stereo not given)	15.5
CC(=O)c1cc2c(cc1C)C(C)(C)C(C)CC2(C)C (stereo not given) [Tonalide]	18.2
C=C1CC2C(CCC3(C)C(=O)CCC23)C2(C)C=CC(=O)C=C12 (stereo not given)	14.3
Cn1c(=O)c2c(ncn2C)n(C)c1=O	7.78

Task: Could you share which LC retention time value was measured for CCOC(=O)CC(O)(CC(=O)OCC)C(=O)OCC [Triethylcitrate] ?
Output: 12.1

Task: // lookup LC retention time for O=S(=O)(O)C(F)(F)C(F)(F)C(F)(F)C(F)(F)C(F)(F)C(F)(F)C(F)(F)C(F)(F)F
Output: 15.5

Task: // LC retention time lookup, key: COC(=O)C1C(O)CCC2CN3CCc4c([nH]c5ccccc45)C3CC21 (stereo not given)
Output: 14.1

Task: Sample c1ccc2nc3ccccc3cc2c1 — what was its LC retention time?
Output: 14.6

Task: Data request, read-out LC retention time, for Oc1ccccc1-c1ccccc1
Output: 13.9

Task: Need LC retention time, item N#CC1CCCN1C(=O)CNC12CC3CC(CC(O)(C3)C1)C2 (stereo not given)
Output: 10.1

----------
Below is a list of entries, each paired with its recorded LC retention time value.
# PROCEDURE SUMMARY: RP, Waters ACQUITY UPLC BEH C18, 100 × 1 mm, 1.7 µm, 50 °C, 0.3 mL/min, estimated dead time 0.17 min; A: water + 10 mM ammonium bicarbonate; B: 10% water + 90% methanol + 10 mM ammonium bicarbonate; gradient (min/%B) 0/0 15/100 21/100 22/0 30/0
# TEST CONDITIONS: stereoisomer not certain
Field format: number, assumed min, no unit text.

Worked examples, 3 compounds total:
Cc1nccn1CC1CCc2c(c3ccccc3n2C)C1=O (stereo not given)	12.4
CNCC(O)c1ccc(O)c(O)c1 (stereo not given) [Epinephrine]	13.9
CC(C1CC1)C(O)(Cn1cncn1)c1ccc(Cl)cc1 (stereo not given)	15

Task: Using the record for FC(F)(F)c1cccc(N2CCNCC2)c1 , report its LC retention time.
Output: 10.6

Task: I am curious: what LC retention time value has been reported for CCOC(=O)c1ccc(N(C)C)cc1 [Ethyl-4-dimethylaminobenzoate] ?
Output: 14.6

----------
# PROCEDURE SUMMARY: RP, Waters ACQUITY UPLC BEH C18, 100 × 1 mm, 1.7 µm, 50 °C, 0.3 mL/min, estimated dead time 0.17 min; A: water + 10 mM ammonium bicarbonate; B: 10% water + 90% methanol + 10 mM ammonium bicarbonate; gradient (min/%B) 0/0 15/100 21/100 22/0 30/0
# TEST CONDITIONS: stereoisomer not certain
Doc: threshold 10 min (exclusive). Items with LC retention time beneath it return Met; others return Not met.

Examples from the recorded data:
Cn1c(=O)nc(NC(C)(C)C)[nH]c1=O	Met
CC(COc1ccc(Oc2ccccc2)cc1)Oc1ccccn1 (centres undefined)	Not met
CCOC(=O)c1ccc(N)cc1	Not met
Oc1ccc(Cl)cc1	Not met
CC1CC2C3CCC4=CC(=O)C=CC4(C)C3(F)C(O)CC2(C)C1(O)C(=O)CCl (centres undefined)	Not met

Task: Strictly below 10 min in LC retention time? O=S(=O)(O)c1ccccc1C=Cc1ccc(-c2ccc(C=Cc3ccccc3S(=O)(=O)O)cc2)cc1
Output: Not met

Task: Lab note: confirm whether the reported LC retention time for this molecule is below 10 min, equality not counting. molecule: CCc1cnc(C2=NC(C)(C(C)C)C(=O)N2)c(C(=O)O)c1 (centres undefined)
Output: Met

Task: Here's an entry: CC(Cn1cnc2c(N)ncnc21)OCP(=O)(O)O (centres undefined) . Is its LC retention time below 10 min?
Output: Met

----------
# PROCEDURE SUMMARY: RP, Waters ACQUITY UPLC BEH C18, 100 × 1 mm, 1.7 µm, 50 °C, 0.3 mL/min, estimated dead time 0.17 min; A: water + 10 mM ammonium bicarbonate; B: 10% water + 90% methanol + 10 mM ammonium bicarbonate; gradient (min/%B) 0/0 15/100 21/100 22/0 30/0
# TEST CONDITIONS: stereoisomer not certain
compounds and their reported LC retention time
Report only the number, with the unit min understood.

Consider the following illustrative entries.
CCOCCN(C(=O)CCl)C(=C(C)C)c1ccccc1	15.3
O=C1CCCCCN1	7
CCCCc1oc2ccccc2c1C(=O)c1cc(I)c(OCCN(CC)CC)c(I)c1	20.1
COc1cc(OC)nc(N)n1	8.74

Query compound follows.
Task: Given CN1C(=O)CN=C(C2=CCCCC2)c2cc(Cl)ccc21 , state its recorded LC retention time.
Output: 15.7

----------
# PROCEDURE SUMMARY: RP, Phenomenex Synergi Polar-RP, 100 × 3 mm, 2.5 µm, 40 °C, 0.4 mL/min, estimated dead time 1.1 min; A: water + 1 mM ammonium fluoride; B: methanol + 1 mM ammonium fluoride; C: acetonitrile; D: 50% isopropanol + 50% acetone; gradient (min/%B/%C/%D) 0/5/0/0 2/5/0/0 8/95/0/0 12/80/15/0 19/25/70/0 19.5/0/25/70 21.5/0/25/70 22.5/0/25/0 23/5/0/0
# TEST CONDITIONS: stereoisomer not certain
# LC retention time per entry
Express it in min; write the number only.

Use these answered entries as a reference point.
CC(C)N1C(=O)c2ccccc2NS1(=O)=O	7.2
O=C(O)CCC(=O)c1ccc(F)cc1	8.54
O=c1c(-c2ccc(O)cc2)coc2cc(O)cc(O)c12	10.3
O=S(=O)(O)c1ccc2ccccc2c1	7.25
NS(=O)(=O)c1cc(C(=O)O)c(NCc2ccco2)cc1Cl [Furosemide]	8.45
CC(C)c1c(C(=O)Nc2ccccc2)c(-c2ccccc2)c(-c2ccc(F)cc2)n1CCC(O)CC(O)CC(=O)O (configuration not stated)	10.4

Task: What value of measured LC retention time is listed for O=C(O)C(F)(F)C(F)(F)C(F)(F)C(F)(F)C(F)(F)C(F)(F)C(F)(F)C(F)(F)C(F)(F)C(F)(F)C(F)(F)C(F)(F)C(F)(F)F ?
Output: 9.93

Task: Tell me the measured LC retention time of CCCCc1nc(Cl)c(CO)n1Cc1ccc(-c2ccccc2-c2nn[nH]n2)cc1 , please.
Output: 9.49

Task: LC retention time for Oc1cccc2n[nH]nc12 [4-Hydroxybenzotriazole] ?
Output: 7

Task: What value of LC retention time has been recorded for this entry: CCCCCCCCCCCCCCOS(=O)(=O)O [Tetradecylsulfate]
Output: 9.97

Task: Returns the measured LC retention time for the input compound. Input: CCCCOC(=O)c1ccc(O)cc1
Output: 10.6

Task: Which LC retention time is reported for this compound? CC(C(=O)O)c1cccc(C(=O)c2ccccc2)c1 (configuration not stated)
Output: 9.75
